Entry source: PubChem BioAssay (NCI)

- measurementProtocol: NCI Yeast Anticancer Drug Screen. Data for the mec2-1 strain (AID 157)
- settings: S. cerevisiae mec2-1 strain, at 50.0 µM
- Protocol: Growth inhibition of yeast strains with defined genetic alterations is measured as a screen for potential anti-cancer activity. Selected strains with alterations in DNA damage repair or cell cycle control were exposed to compounds and growth inhibition was measured relative to vehicle treated controls. The strain used in this assay is mec2-1
About 79,000 compounds went through this panel and 15% of them were active in at least one assay; those are over-represented in the sample as a whole. Activity calls are given as the source filed them. No stated cut-off is given here; in the data, active means growth inhibition above about 70%; inactive means the rest.
Outcomes: active, inactive

| compound | classAssignment |
| --- | --- |
| CN(C)c1ccc(N=Cc2ccc3c(c2)OCO3)cc1 | inactive |
| Cc1ccc2c(c1)C(O)(CC(=O)c1ccccc1)C(=O)N2 (configuration not stated) | inactive |
| COc1cc(C=Nc2cc(Cl)c(N=O)c(Cl)c2)ccc1N(CCCCl)CCCCl | inactive |
| Cc1csnn1 | inactive |
| O=C(CC(=O)c1ccc(Cl)cc1)c1ccc(Cl)cc1 | inactive |
| Nc1ccc(N(C(=O)c2ccccc2)C(=O)c2ccccc2)c(-c2ccccc2)c1 | inactive |
| N/C(=N\N=C\c1c[nH]c2cc(C(F)(F)F)ccc2c1=O)NO | inactive |
| COC(=O)N1C(C#N)=CCc2ccccc21 | inactive |
| COC(=O)C1c2ccoc2CC2C1C(O)C(O)C1C(C)(C)CCCC21C (configuration not stated) | active |
| O=C1NC(=O)C(F)[CH]([Ge](=[O])[O][Ge](=[O])[CH]2NC(=O)NC(=O)C2F)N1 (configuration not stated) | inactive |
| COc1cccc2cc[nH]c12 | inactive |
| COC(=O)c1[nH]c(C)c(C(=O)OC)c1C | inactive |

----------
- measurementProtocol: NCI Yeast Anticancer Drug Screen. Data for the sgs1 mgt1 strain (AID 161);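 further: 0% = growth of cultures given vehicle only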
- settings: S. cerevisiae sgs1 mgt1 strain, at 50.0 µM, hits give high values
This is part of a sample that, as a whole, favours compounds with a hit. Of some 79,000 tested, about 15% had one in any assay. Active and inactive are the calls of the source. No stated cut-off is given here; in the data, active means growth inhibition above about 70%; inactive means the rest.
# Lookup of reported growth inhibition keyed by entry

| molecule | growth inhibition |
| --- | --- |
| Cc1ccc(Nc2ncnc3c2cnn3-c2ccccc2)cc1 | 43.5% (inactive) |
| c1ccc2c(c1)CCCC(N1CCOCC1)C2 (stereo not drawn) | 16.9% (inactive) |
| c1ccc(C23CCCCC2O3)cc1 (stereo not drawn) | 6.55% (inactive) |
| Cc1ccc(S(=O)(=O)Oc2nc3nc4ccccc4nc3nc2OS(=O)(=O)c2ccc(C)cc2)cc1 | 3.7% (inactive) |
| CC1CC=CCC1(C(=O)O)C(=O)O (stereo not drawn) | -10.2% (inactive) |
| CCN(CC)C(=S)Oc1cc(C)nc(SCC(=O)c2ccc(Cl)cc2)n1 | 41.2% (inactive) |
| CCOC(=O)c1c[nH]c(C(=O)OCC)c1C | 4.2% (inactive) |
| CCN(CC)Cc1cc(Nc2ncnc3sc(C)c(C)c23)ccc1O | 1.3% (inactive) |
| O=S(=O)(c1ccccc1)c1ccc(O)cc1 | -16.9% (inactive) |
| CC(C)(C)C(=O)[CH-]C(=O)C(F)(F)F.CC(C)(C)C(=O)[CH-]C(=O)C(F)(F)F.CC(C)(C)C(=O)[CH-]C(=O)C(F)(F)F.[Ru+3] | 1.7% (inactive) |
| CCC1(CC)CC(=O)NC1=O | -40.5% (inactive) |
| O=C1/C(=C/c2ccc(O)cc2)CCC/C1=C\c1ccc(O)cc1 | 5.2% (inactive) |
| O=[N+]([O-])c1cc(F)cc(I)c1 | 2.15% (inactive) |
| CCOC(=O)/C=C/c1nc(C(=O)OCC)c(C)c(=O)[nH]1 | 22% (inactive) |
| CC(=O)O[C@H]1CC[C@]2(C)[C@H]3C(=O)C=C4[C@@H]5C[C@@](C)(C(=O)O)CC[C@]5(C)CC[C@@]4(C)[C@]3(C)CC[C@H]2C1(C)C | 41.5% (inactive) |
| COc1ccc(CC(=O)OCC2CCCO2)cc1OC (stereo not drawn) | 9.9% (inactive) |
| CN(c1ccccc1)c1cc2c(cc1[N+](=O)[O-])no[n+]2[O-] | 98.3% (active) |
| CC(=O)OCC1OC(OCCCc2ccccc2)C(OC(C)=O)C(OC(C)=O)C1OC(C)=O (stereo not drawn) | 6.45% (inactive) |
| COc1ccc(/C(=N\O)C(c2ccc(OC)cc2)C(Cl)(Cl)Cl)cc1 (stereo not drawn) | 38.9% (inactive) |
| Nc1c(OCc2ccccc2)cccc1C(=O)O | 10.9% (inactive) |
| N#CCCN(CCC#N)c1ccc(C=Nc2ccc(F)cc2)cc1 | 11.9% (inactive) |
| Cc1nc(-c2cccnc2)sc1C(=O)/C=C/c1ccc(Cl)cc1Cl | 3.85% (inactive) |
| CCc1cccc(CC)c1N=C(NC(=O)c1ccc(Br)cc1)SC | -4.7% (inactive) |
| CC(C(=O)O)C(C)C(=O)O (stereo not drawn) | 9.8% (inactive) |
| CC1CN(C(=S)Nc2ccccc2)CCN1C(=S)Nc1ccccc1 (stereo not drawn) | 6.3% (inactive) |
| CC(=O)C1CCC2C3CC=C4CC(O)CCC4(C)C3CCC12C (stereo not drawn) | 23.8% (inactive) |
| O=c1[nH]c(=O)n(C2CC(O)C(CO)O2)cc1Cl (stereo not drawn) | 2.9% (inactive) |
| CCOC(=O)CNC(=O)C(CSSCC(NC(=O)OCc1ccccc1)C(=O)OC)NC(=O)C(NC(=O)OCc1ccccc1)C(C)C (stereo not drawn) | 14.5% (inactive) |
| Cc1ccc(S(=O)(=O)OC2CCCCCC2c2ccccc2)cc1 (stereo not drawn) | 0.05% (inactive) |
| COc1ccc(C#CCC(OC2OC(CO)C(O)C(O)C2O)C(O)c2ccc(OC)c(OC)c2)cc1OC (stereo not drawn) | -6.95% (inactive) |
| CCCC(C)c1ccc(C(=O)O)cc1 (stereo not drawn) | 4.45% (inactive) |
| CCCCCCc1ccccn1 | 9.6% (inactive) |
| CCOC(=O)c1c2ccc(/C=C/c3ccccc3)ccc-2c(C(=O)OCC)c1N | -23.9% (inactive) |
| Clc1ccc(C(Cl)(Cl)C(Cl)(Cl)Cl)cc1 | -2.15% (inactive) |
| CCC(SC(CC)(CC(C)C)C(N)=O)C(N)=O (stereo not drawn) | 15.8% (inactive) |
| Cn1cnc2cc3c(cc2c1=O)nc1n3CCCC1 | -12.6% (inactive) |
| CN1CCC(C(O)c2ccccc2)CC1 (stereo not drawn) | -6.15% (inactive) |
| C=CCOC(=O)Nc1cc(Cl)ccc1C | -8.5% (inactive) |
| CCOC(=O)CNC(=O)C(=[N+]=[N-])C(=O)COc1ccc(Cl)cc1Cl | 18.1% (inactive) |
| CO/N=C1\C(O)CC2C(C)(CCC3C2(C)CCC2(C)C4CC(C)(C)CCC4(C)CCC32C)C1C (stereo not drawn) | -18.5% (inactive) |
| COCCC(N)C(=O)O (stereo not drawn) | -15% (inactive) |
| Cc1ccc2c(c1)C(O)(CC(=O)c1ccccc1)C(=O)N2 (stereo not drawn) | 7% (inactive) |
| Cc1ccc(S(=O)(=O)N2CCOCC2)cc1 | -13.3% (inactive) |
| COc1cc(/C=C/C(=O)O)cc(OC)c1OC | 12.9% (inactive) |
| NC(=O)CCCC(C(N)=O)(c1ccccc1)c1ccccc1 | 3.25% (inactive) |
| N#CC(c1ccccc1)[N+](=O)[O-] (stereo not drawn) | -2.45% (inactive) |
| O=C(Nc1cc(C(F)(F)F)ccc1Cl)c1ccccc1F | -6.95% (inactive) |
| N#CC1CNCCC1=N (stereo not drawn) | 13.4% (inactive) |

----------
- measurementProtocol: NCI Yeast Anticancer Drug Screen. Data for the sgs1 mgt1 strain (AID 161);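 further: 0% = growth of cultures given vehicle only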
- settings: S. cerevisiae sgs1 mgt1 strain, at 50.0 µM, hits give high values
Compounds without any hit were thinned out: in the full panel of roughly 79,000, 15% have a hit. Calls of active or inactive are those of the source. No stated cut-off is given here; in the data, active means growth inhibition above about 70%; inactive means the rest.
resultType: growth inhibition

| compound | valueReported |
| --- | --- |
| CC(O)CCC(C)(C)[N+](=O)[O-] (stereo unspecified) | 0.1% (inactive) |
| CCOC1(c2ccccc2)CCNCC1 | 29.4% (inactive) |
| Nc1ccc(Br)cc1C(=O)O | -17.4% (inactive) |
| c1cc2nc(c1)CSCCCCCCCCSC2 | 17.8% (inactive) |
| CCC(=O)OC1=CC(=O)c2ccccc2C1=O | 4.7% (inactive) |
| CCCCC(=O)OC[n+]1ccc2c(C)c3[nH]c4ccc(OC)cc4c3c(C)c2c1 | 90.2% (active) |
| c1ccc(CCNCc2ccc(CNCCc3ccccc3)cc2)cc1 | -12.2% (inactive) |
| O=C(O)/C=C/c1c(Cl)cccc1Cl | -11.9% (inactive) |
| O=c1/c(=C/c2ccc3c(c2)OCO3)sc2nnc(-c3ccco3)n12 | 17.9% (inactive) |
| COc1ccc(-n2cnc3[nH]ncc3c2=O)cc1 | 0.05% (inactive) |
| CCOC1(OCC)C(=O)N(c2ccc(Cl)c(Cl)c2)C(=O)N1c1ccc(Cl)c(Cl)c1 | -5.6% (inactive) |
| CCOC(=O)CC(=O)Nc1cccc2sc3ncccc3c(=O)c12 | -4.25% (inactive) |
| O=c1cc(Nc2ccccc2Cl)[nH]c(=O)[nH]1 | -5.15% (inactive) |
| COC(=O)c1ccccc1C1CN=NC12Cc1cccc(C)c1C2=O (stereo unspecified) | 64.8% (inactive) |
| Cc1cccc(NC(=S)NC2CCCCC2)c1 | -3.1% (inactive) |
| CCCCCCCCS(=O)(=O)NC | -8.75% (inactive) |
| CCOC(=O)C(C(=O)OCC)=C(C)C | -12.2% (inactive) |
| O=C1NC(=O)C(c2ccsc2)(c2cccs2)N1 (stereo unspecified) | 1% (inactive) |
| COC(=O)c1ncn(Cc2ccccc2)c1O (tested in a mixture with another compound) | 8.55% (inactive) |
| CCC(=O)Oc1c2ccsc2c(OC(=O)CC)c2ccsc12 | 32.1% (inactive) |
| N#Cc1ccc(OCCCCCOc2ccc(C#N)cc2)cc1 | -1.15% (inactive) |
| CC(C)CNC(=S)N/N=C/C=C/c1ccc(C(C)C)cc1 | 20.3% (inactive) |
| O=c1oc2ccccc2cc1-n1nnc2ccccc21 | 18.9% (inactive) |
| CC(=O)Nc1ccc2c(Br)ccc3c2c1CC3 | 4.3% (inactive) |
| O=C(CSc1nnc(-c2ccc(N=Cc3ccc(Cl)cc3)cc2)o1)Nc1ccc([N+](=O)[O-])cc1 | 14.7% (inactive) |
| COc1cc(Br)cc(OC)c1Oc1cc(OC)c(OC)c(OC)c1Br | 36% (inactive) |
